# Target Under Test: HDM2 (human double minute 2) protein (human, UniProt Q00987 1-491)
# Sequence (Q00987 whole entry): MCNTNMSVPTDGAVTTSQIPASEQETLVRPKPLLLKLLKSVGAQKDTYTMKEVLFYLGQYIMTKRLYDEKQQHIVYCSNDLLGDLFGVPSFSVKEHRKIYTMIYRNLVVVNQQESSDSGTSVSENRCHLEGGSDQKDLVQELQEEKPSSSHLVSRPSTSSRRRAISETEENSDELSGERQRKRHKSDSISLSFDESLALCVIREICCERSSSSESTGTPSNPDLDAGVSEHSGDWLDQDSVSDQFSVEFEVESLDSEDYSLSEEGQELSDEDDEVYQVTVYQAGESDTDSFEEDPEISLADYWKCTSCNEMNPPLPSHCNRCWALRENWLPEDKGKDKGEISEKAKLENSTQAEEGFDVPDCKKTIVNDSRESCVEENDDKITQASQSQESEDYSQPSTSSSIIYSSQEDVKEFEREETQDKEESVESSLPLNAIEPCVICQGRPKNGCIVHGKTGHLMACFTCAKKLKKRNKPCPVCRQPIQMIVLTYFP
# Experiment Notes: fluorescence polarisation
# Condition Notes: both partners purified
Reported Metric: IC50 (µM)

{"columns": ["Binder", "Reported Metric", "Reported Value"],
 "data": [
  ["PCFYDYWQCL (not fully specified; stapled (the two Cys residues at i and i+7 cross-linked), source: synthetic peptide) [stapled HDM2-opt peptide]", "IC50", 6.9]
]}

Hello, the source for this data is paper PMC9645375, in case you need it.
